Recorded bioavailability, one value per entry.
# testSummary: In vivo pharmacokinetics in ICR mice
# conditions: mouse, plasma, 10 mg/kg, PO vs IV

>  <smilesNotation>
Cc1cc2cc(n1)-c1cnn(C)c1OCCC[C@@H](C1CC1)CN1/C(=N/C2=O)Nc2ccc(NCCN(C)C)cc21

>  <bioavailability>
27.9%

$$$$
>  <smilesNotation>
Cc1cc2cc(n1)-c1cnn(C)c1OCCC[C@@H](C1CC1)CN1/C(=N/C2=O)Nc2cc(NCCCN3CCOCC3)ccc21

>  <bioavailability>
35.4%

$$$$
>  <smilesNotation>
CCC1(Nc2ccc3c(c2)N/C2=N\C(=O)c4cc(C)nc(c4)-c4cnn(C)c4OCCC[C@@H](C4CC4)CN23)COC1

>  <bioavailability>
68.4%

$$$$
>  <smilesNotation>
Cc1cc2cc(n1)-c1cnn(C)c1OCCC[C@@H](C1CC1)CN1/C(=N/C2=O)Nc2ccc(N(C)C3CCN(C)CC3)cc21

>  <bioavailability>
29.1%

$$$$
>  <smilesNotation>
Cc1cc2cc(n1)-c1cnn(C)c1OCCC[C@@H](C1CC1)CN1/C(=N/C2=O)Nc2cc(NC3(C)COC3)ccc21

>  <bioavailability>
42.9%

$$$$
>  <smilesNotation>
Cc1cc2cc(n1)-c1cnn(C)c1OCCC[C@@H](C1CC1)CN1/C(=N/C2=O)Nc2ccc(N[C@H]3C[C@H](N(C)C)C3)cc21

>  <bioavailability>
30.5%

$$$$

Source listed as patent US20250034165A1.
